Values from the supplement of paper PMC12764529

Test: folding stability dG unfold from chymotrypsin proteolysis; higher = more stable
Task for the reader: assign each of the following sequences its reported folding stability dG unfold.
One number for each entry, in kcal/mol.

# sequence_content, folding stability dG unfold, kcal/mol
data = [
    ("SAGGSAMVRIEVELENGEKLEIEIEVPEEMTEEELLEKAKELAKELAEKLGIPEAKVKVVKIEVVPSAGGSA [r15_463_TrROS_Hall]", 2.92),
]

Each sequence below has a reported value. Please supply its folding stability dG unfold.
1. SAGKMKIISVKIENNTITIEIYKDGKKIKKIEIKKNKKKIIIKIEIEPGEEIKIKIEINGKTYEITIKPSAG [r5_533_TrROS_Hall]
2. SSAEEIVEKLKKELEEKLPEDYKITSVTLTKSPDGIVTAPMTIKSSDGVESTVTVTYDLKTGKITIEVNSSA [r9_219_JUSTAS]

Output:
1. 4.64
2. 4.84

====

Assay: folding stability dG unfold (combined trypsin and chymotrypsin); higher = more stable
test_readout: folding stability dG unfold (kcal/mol)
Answers are plain numbers, in kcal/mol.

Would you please look over these solved cases?
# sequence_content, display_unit, folding stability dG unfold
data = [
    ("SAGGSAGGSAGGMEFKPGQEIEIVLKDENGRLIVIKAKVKKVDGKLVIEIEEAYELDDLSAGGSAGGSAGGS [r10_744_TrROS_Hall]", "kcal/mol", 2.05),
    ("SAGGSAGGSAGGAAEVLEALRAARGQPVVVLVKDPAGNEREVTVPGDTARFPGWTVVELLSAGGSAGGSAGG [r7_998_JUSTAS]", "kcal/mol", 0.341),
    ("SAPEIVVERFEDGSRRLGFTIPGYEVLEEVDVPANETEKTAVFTLPDRVLVFTFREEGIEPRPVPLDELSAG [r14_403_TrMRF]", "kcal/mol", -0.598),
]

Each sequence below has a reported value. Please supply its folding stability dG unfold.
1. SAGGMKIVSVEFDEETGEVYVKIEVPTPEELEALKKLPGEVRIVDKETGEVKVIKVKSIEELLELLKKSAGG [r13_604_TrROS_Hall]
2. SVEKAREALEEAGFEVTRIEVREDGTVRVTVRRDGKLVEIELTVEPPPPVEVVEEEPEVRVERRYSAEDLSA [r9_2_TrROS_Hall]
3. SAGGSAGGSAGDNYVMITHTIPFPPGEPLEIKIPPGAKIDDIDPERDPGNGTITVSIWFRSAGGSAGGSAGG [r11_701_TrROS]

Output:
2.05
0.212
0.73

====

Test: folding stability dG unfold (combined trypsin and chymotrypsin); higher = more stable
test_readout: folding stability dG unfold (kJ/mol)
Numbers only, in kJ/mol.

Would you please look over these solved cases?
# sequence_content, test_readout, display_unit, recorded_number
records = [
    ("SAGGSVFESEKDLRVEVYKIKVGTTLGKEKNGKPKKPKFKEKEVLVVKVEVPLEDGTTLSAEFTFGSAGGSA [r2_218_TrMRF]", "folding stability dG unfold", "kJ/mol", 10.5),
    ("SAGPKVKLIKAEFFPDGRLVVYAEVESSNGEPAFAVGVFDPRNPNKAHVKVYNPSTGKVSEFEVTVTPGSAG [r5_345_TrMRF]", "folding stability dG unfold", "kJ/mol", 12.6),
    ("SAGSMHLVEFTGTEEVVDEFLASLPPEVVVERERYPDRWLVRLPPDVPARTITVPTPDGRPVTFTLRLESAG [r5_123_JUSTAS]", "folding stability dG unfold", "kJ/mol", -2.04),
    ("SAGGSAGGSAGKKKKIFLIKIEVVKVKVEKRKKKDGKLEEKVEIEIKIEITEIPLPPELLSAGGSAGGSAGG [r11_24_TrROS_Hall]", "folding stability dG unfold", "kJ/mol", 12.3),
    ("SAGGEGKEDKKIKVLFINVPVDKPDLLLKLAKEIIEKKEYDIIIVDHPENYKALKEAFPEYDIPIILGSAGG [r13_353_TrMRF]", "folding stability dG unfold", "kJ/mol", 13.8),
]

Each sequence below has a reported value. Please supply its folding stability dG unfold.
1. SAGGSAGGSAGGSMKTTTLTVKPEELEEVKKKLTPPDKTVTIKSVTKDPKEDLVTLTVESAGGSAGGSAGGS [r10_1030_JUSTAS]
2. SAGGSAKMKITVEKNEDGELYVLIEVDSVEELEEALKKLPGIEKVEVEVFVDEETKRVYILVRVKPSAGGSA [r15_344_TrROS_Hall]
3. SAGGSSPWLERALEEARELMKNDPPGKEVEAKVKVPYPTPDGQQQPMKFRIRMTYKNNKIKEIEITSAGGSA [r2_173_TrROS]
4. SAGGSAGGSVRIPGGQPNTKVTVTVRLPDGTPVEVEATVNPSGEITLDLPDVSPDLIESIELSSAGGSAGGS [r12_477_JUSTAS]

Output:
1. -3.86
2. 13.6
3. 3.44
4. 3.43

====

Assay: folding stability dG unfold from chymotrypsin proteolysis; higher = more stable
test_readout: folding stability dG unfold (kcal/mol)
Answers are plain numbers, in kcal/mol.

Would you please look over these solved cases?
# sequence_content, test_readout, display_unit, recorded_number
data = [
    ("SAGMPDVPPVPRTFRLEIEIEVPAEDPELARELAEEIREEIRRLGAVRTEVEIDPEPGRVRVRVEFVEGSAG [r5_512_TrMRF]", "folding stability dG unfold", "kcal/mol", 1.56),
    ("SAGGSLIEKIAKEAGIKVEISKEETNGSPVLTITITKGDKNIVFKDDGKDPEKLVKELAKKIGIKPISAGGS [r8_226_JUSTAS]", "folding stability dG unfold", "kcal/mol", 0.414),
    ("SSLEIPPEVLAEIKKAALEGDDEKVKELLKELGFTKVEIKYEKLDGKVKLTIKVEHPEGPATITFSDELLSA [r9_783_JUSTAS]", "folding stability dG unfold", "kcal/mol", 4.15),
    ("SAMVSPEEAAKLIAEKIREEHPDPNIVVPVKVEYDPETNTTTITVTVKYPDDPSTETFTYTLAPDDVLKSAG [r14_849_JUSTAS]", "folding stability dG unfold", "kcal/mol", 2.19),
]

Each sequence below has a reported value. Please supply its folding stability dG unfold.
1. SAGGPGFQRYPYTLELPDGRKITVEYWRMGDNPYVQIDIRHDGEPLGTIHVPVPSPDQIEDAAKDIISAGGS [r16_55_TrROS]
2. SAGGSAGGSAPKPIEITFPAKSLEEAKIAAEEIKRAFEELEDVKVEVEYDPETGTVTVRVYGSAGGSAGGSA [r18_368_TrMRF]
3. SMKPITLEEALKLAEKLIEEGAKEVVIIRREDGTLLAIMEAEEASPEKVKEFLEANPNVRVLRITGSKEESA [r9_568_TrMRF]
4. SAGGSAGGSAGSSMTSTVTEVSTLSNGGTVVTTTTTSYYPSTGTTTTSTTTTTFTDGKAVSAGGSAGGSAGG [r11_337_JUSTAS]
5. SAGGMIAEIKPIPPNVPDGATATITFPDGTPAEAELRTEPLEDGPRRVVLKLKGKEGEIELEFVLPLSAGGS [r8_360_TrMRF]

Output:
1. 1.78
2. 3.58
3. 3.11
4. 0.932
5. -0.488

Each sequence below has a reported value. Please supply its folding stability dG unfold.
1. SKKIKIILRYPDGWYVKAEMEVPNGKERDIWFPNPEEAIEWAKTIARQFNPGVEIEDIETVPPDDLPPNFSA [r9_137_TrROS]
2. SAGGSAGGSAGMKIEKNKDGKLRIIIYNKNGKKVKEIEMSVEEAKKLAEKNNFEIVKIEPSAGGSAGGSAGG [r11_521_TrROS_Hall]
3. SAGGSAGGKITINGKEYEIVEVKYDKETNTLHFLIKNKDGTLLKISISPNGKIEIKEVPAEELLSAGGSAGG [r6_699_TrROS_Hall]
4. SAMKKIKLSPEALELAKKLPPDYKVTEIKVEKLEDGTVVVTLTVEKTNENGEKEKVELTIVLDKDGKPVSAG [r14_420_TrROS_Hall]
5. SAGGSAGGSAGGSKNKKIKLGPEVKIKVKIEAKLEGGYSSENGLPEFKLDVKLEIGEVESAGGSAGGSAGGS [r10_877_TrMRF]
6. SAGGSAGGSAGGMPVTLNVTVKTKDPDGVAATETVTLTFSSPEEALAAIKAAYPNSTIESAGGSAGGSAGGS [r10_1248_JUSTAS]

Output:
1.86
0.966
3.74
0.0295
1.09
1.33

====

Test: folding stability dG unfold (combined trypsin and chymotrypsin); higher = more stable
test_readout: folding stability dG unfold (kJ/mol)
Answers are plain numbers, in kJ/mol.

# sequence_content, test_readout, recorded_number
rows = [
    ("SAGWYIKVEVYYGGKKHTFMIPRKQAKELRKKYPPGDEIPIPFNGRDVEIRVQVIPPPPPSPEDAADNKSAG [r5_669_TrROS]", "folding stability dG unfold", 10.2),
    ("SAGGSAGGSAGMKPGQVVIYKIKIPLPDDGEPLFEIPIMYPVGMPEEQAKDFAKEFADKFSAGGSAGGSAGG [r11_516_TrROS]", "folding stability dG unfold", -2.45),
    ("SAGGSAGGSALEVPSNYLVEVRFPNETRLIPVEDLDAFFEAYPDVPWTDIRVLDPKTGKPISAGGSAGGSAG [r3_134_TrMRF]", "folding stability dG unfold", 9.17),
]

Then this sequence:
Task: Requested read-out: folding stability dG unfold. Entry: SAGGSAGGSAMTPDELKDNFPNMPVEPRPLNNSTQWKIEMPGGMRIEIQYDPGKPKIDIEEGSAGGSAGGSA [r18_13_TrROS]
Output: -2.6
